# System: whole blood cells of group 3 pigs vaccinated with BCG-pAg85A
# Format: cell-based, pigs (Sus scrofa domestica)
REPORTED METRIC: IFN-γ levels, BCG / pAg85A animal number 3

SUBSTANCE | DATA VALUE
251–270: synthetic overlapping peptide of mature Ag85A, aa 251–270 (NGVFDFPDSGTHSWEYWGAQ; UniProt P9WQP3 294-313, looked up, fragment) | <5 pg/mL
131–150: synthetic overlapping peptide of mature Ag85A, aa 131–150 (SALTLAIYHPQQFVYAGAMS; UniProt P9WQP3 174-193, looked up, fragment) | 5,306 pg/mL
111–130: synthetic overlapping peptide of mature Ag85A, aa 111–130 (ANRHVKPTGSAVVGLSMAAS; UniProt P9WQP3 154-173, looked up, fragment) | 1,415 pg/mL
